B1: NCK2 (parent)
chain: YVERKNSLKKGSLVKNLKDTLGLG

- Variants of: B1
- measurement notes: protein stability index of a GFP-peptide fusion (GPS, HEK-293T) (PSI 1-6); higher = more stable;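 further: lentivirally expressed fusions sorted by FACS into six bins by GFP to DsRed ratio, PSI derived from sequencing read proportions per bin multiplied by bin number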
- assay setup: c terminus: a fixed tail appended
experimental endpoint: protein stability index
Give bare numbers.

Below, 5 variants whose answers are already recorded.
{"seq": "YVERKNSLKKGSLFKNLKDTLGLG [V14F]", "protein stability index": 1.96}
{"seq": "YVERKNSLKKGSLVKNLKITLGLG [D19I]", "protein stability index": 2.01}
{"seq": "YVERKNSLKKGSLVKNLKDRLGLG [T20R]", "protein stability index": 1.97}
{"seq": "YVERKNSLKKGSLVKNLKDTRGLG [L21R]", "protein stability index": 1.98}
{"seq": "YVERKNSLKKGSLYKNLKDTLGLG [V14Y]", "protein stability index": 1.98}

Report protein stability index for each item below.
1. YVNRKNSLKKGSLVKNLKDTLGLG [E3N]
2. YVERTNSLKKGSLVKNLKDTLGLG [K5T]

2.04
2.02

Values from the supplement of paper PMC10567573
